melting point values by entry

Worked set:
> print(dat)
                                   molecule  attributemeasured  endpointvalue
1  CC(C)n1cnc2c(Nc3cccc(NC(=O)c4ccc(-c5ccccc5)cc4)c3)nc(NC3CCC(O)CC3)nc21 (stereo not shown) [Example 101]      melting point  226 to 228 °C
2  CCn1cnc2c(Nc3cccc(NS(C)(=O)=O)c3)nc(N[C@H]3CC[C@H](O)CC3)nc21 [Example 80]      melting point  265 to 267 °C
3  CCn1cnc2c(Nc3cccc(NS(=O)(=O)c4ccc(OC)cc4)c3)nc(N[C@H]3CC[C@H](O)CC3)nc21 [Example 82]      melting point  140 to 143 °C

Now consider the entry below.
# get_value(readout='melting point', item= CCn1cnc2c(Nc3cccc(NC(=O)C#Cc4ccc(C)c(C)c4)c3)nc(N[C@H]3CC[C@H](O)CC3)nc21 [Example 110] )
146 to 148 °C

====

melting point values by entry

# get_value(readout='melting point', item= CCn1cnc2c(Nc3cccc(NC(=O)Oc4ccccc4)c3)nc(N[C@H]3CC[C@H](O)CC3)nc21 )
131 to 134 °C

# get_value(readout='melting point', item= CC(C)n1cnc2c(Nc3cccc(NC(=O)C#Cc4ccc(Cl)cc4)c3)nc(NC3CCC(O)CC3)nc21 (stereo not drawn) [Example 96] )
156 to 158 °C

# get_value(readout='melting point', item= CCn1cnc2c(Nc3cccc(NC(=O)C#Cc4cc(C)ccc4C)c3)nc(N[C@H]3CC[C@H](O)CC3)nc21 [Example 109] )
231 to 232 °C

# get_value(readout='melting point', item= CCn1cnc2c(Nc3cccc(NC(=O)C#Cc4ccc(OC)cc4)c3)nc(N[C@H]3CC[C@H](O)CC3)nc21 [Example 95] )
142 to 144 °C

# get_value(readout='melting point', item= CCn1cnc2c(Nc3cccc(NC(=O)OCC(C)C)c3)nc(N[C@H]3CC[C@H](O)CC3)nc21 [Example 87] )
122 to 125 °C

# get_value(readout='melting point', item= CCn1cnc2c(Nc3cccc(NC(=O)C#Cc4nccc(C)n4)c3)nc(NC3CCC(O)CC3)nc21 (stereo not drawn) [Example 106] )
167 to 177 °C

====

melting point values by entry

Worked set:
> print(dat)
                                   molecule  endpointvalue
1  CCn1cnc2c(Nc3cccc(NC(=O)C#CCN4CCCCC4)c3)nc(NC3CCC(O)CC3)nc21 (stereo not shown)         150 °C
2  CCn1cnc2c(Nc3cccc(C(=O)NCc4ccc(OC)cc4)c3)nc(N[C@H]3CC[C@H](O)CC3)nc21  157 to 158 °C
3  CCn1cnc2c(Nc3cccc(C(=O)NCc4ccc(C(F)(F)F)cc4)c3)nc(N[C@H]3CC[C@H](O)CC3)nc21  129 to 137 °C
4  CCn1cnc2c(Nc3cccc(NC(=O)C#Cc4ccc(F)cc4)c3)nc(N[C@H]3CC[C@H](O)CC3)nc21  144 to 146 °C
5  CCn1cnc2c(Nc3cccc(NC(=O)C#CCN4CCN(C)CC4)c3)nc(NC3CCC(O)CC3)nc21 (stereo not shown)  115 to 122 °C
6  CCn1cnc2c(Nc3cccc(C(=O)NCc4ccccc4)c3)nc(N[C@H]3CC[C@H](O)CC3)nc21         215 °C

Now consider the entry below.
# get_value(readout='melting point', item= CCn1cnc2c(Nc3cccc(C(=O)NCc4ccc(C)cc4)c3)nc(N[C@H]3CC[C@H](O)CC3)nc21 )
130 to 134 °C
